system: Enterococcus faecalis EFS.201 (ATCC 49452); type: cell-based; conditions: ATCC 49452
assay.metric: Efs201 MIC (µg/mL)
Only the number, expressed in µg/mL, is required.

Ask: Could you share which Efs201 MIC value was measured for CCCCCCCCCC(C)(C)C(=O)N[C@@H](Cc1c[nH]c2ccccc12)C(=O)N[C@H](CC(N)=O)C(=O)N[C@@H](CC(=O)O)C(=O)N[C@@H]1C(=O)NCC(=O)N[C@@H](CCCN)C(=O)N[C@@H](CC(=O)O)C(=O)N[C@H](C)C(=O)N[C@@H](CC(=O)O)C(=O)NCC(=O)N[C@H](CO)C(=O)N[C@@H]([C@H](C)CC(=O)O)C(=O)N[C@@H](CC(=O)c2ccccc2N)C(=O)O[C@@H]1C ?
Reply: 16

Ask: So what's the measured Efs201 MIC for this one? CCCCCCCc1ccc(NC(=O)N[C@@H](Cc2c[nH]c3ccccc23)C(=O)N[C@H](CC(N)=O)C(=O)N[C@@H](CC(=O)O)C(=O)N[C@@H]2C(=O)NCC(=O)N[C@@H](CCCN)C(=O)N[C@@H](CC(=O)O)C(=O)N[C@H](C)C(=O)N[C@@H](CC(=O)O)C(=O)NCC(=O)N[C@H](CO)C(=O)N[C@@H]([C@H](C)CC(=O)O)C(=O)N[C@@H](CC(=O)c3ccccc3N)C(=O)O[C@@H]2C)cc1
Reply: 0.25

====

system: Enterococcus faecalis EFS.201 (ATCC 49452); assay type: cell-based; settings: ATCC 49452
Exercise: state measured Efs201 MIC for each of the compounds provided.
Kindly report the value followed by its unit.

Ask: What measured Efs201 MIC is associated with CCCCCCCCCC(C)NC(=O)N[C@@H](Cc1c[nH]c2ccccc12)C(=O)N[C@H](CC(N)=O)C(=O)N[C@@H](CC(=O)O)C(=O)N[C@@H]1C(=O)NCC(=O)N[C@@H](CCCN)C(=O)N[C@@H](CC(=O)O)C(=O)N[C@H](C)C(=O)N[C@@H](CC(=O)O)C(=O)NCC(=O)N[C@H](CO)C(=O)N[C@@H]([C@H](C)CC(=O)O)C(=O)N[C@@H](CC(=O)c2ccccc2N)C(=O)O[C@@H]1C (single isomer, unassigned) [14 isomer I] on Enterococcus faecalis EFS.201 (ATCC 49452)?
Reply: 1 µg/mL

Ask: I'm curious: which Efs201 MIC was measured for CCCCc1ccc(CC(=O)N[C@@H](Cc2c[nH]c3ccccc23)C(=O)N[C@H](CC(N)=O)C(=O)N[C@@H](CC(=O)O)C(=O)N[C@@H]2C(=O)NCC(=O)N[C@@H](CCCN)C(=O)N[C@@H](CC(=O)O)C(=O)N[C@H](C)C(=O)N[C@@H](CC(=O)O)C(=O)NCC(=O)N[C@H](CO)C(=O)N[C@@H]([C@H](C)CC(=O)O)C(=O)N[C@@H](CC(=O)c3ccccc3N)C(=O)O[C@@H]2C)cc1 [Compound 44] tested on Enterococcus faecalis EFS.201 (ATCC 49452)?
Reply: 8 µg/mL

Ask: Enter reported Efs201 MIC observed with Enterococcus faecalis EFS.201 (ATCC 49452) for C[C@H](CC(=O)O)[C@@H]1NC(=O)[C@@H](CO)NC(=O)CNC(=O)[C@H](CC(=O)O)NC(=O)[C@@H](C)NC(=O)[C@H](CC(=O)O)NC(=O)[C@H](CCCN)NC(=O)CNC(=O)[C@@H](NC(=O)[C@H](CC(=O)O)NC(=O)[C@@H](CC(N)=O)NC(=O)[C@H](Cc2c[nH]c3ccccc23)NC(=O)C2CCC(c3ccc(Cl)cc3)CC2)[C@@H](C)OC(=O)[C@H](CC(=O)c2ccccc2N)NC1=O (stereo partly drawn) [Compound 67]
Reply: 4 µg/mL
